# System: SARS-CoV-2 variant D614G
# Assay type: cell-based
property name: IC50 (µM)
Number only, in µM; omit the unit.

Name the reported IC50 value associated with the compound O=C(c1ccc(OCCN2CCCCC2)cc1)c1c(-c2ccc(O)cc2)sc2cc(O)ccc12 [Raloxifene]
7.48

Source of measurements: patent US20240342150A1
